System Name: His6-BRD4 (BD1) (Homo sapiens)
Construct: A pET28 plasmid containing residues 44–168 of BRD4 (BD1), a 6xHis tag, a TEV protease cleavage site; made in house; host or cells: E. coli Rosetta (D3)
Test: Surface plasmon resonance (SPR) single-dose screening
Type: binding
Condition Description: single dose 10 µM, n = 2
Property Name: SPR RESULT

Examples with answers:
Compound	SPR RESULT
COc1cccc(-n2c(C)nnc2SCC(=O)NC2(CO)CCCCCCC2)c1 [Compound 27]	Negative
CCCc1c(C(=O)N2CCC(F)(F)C(CNC(=O)c3nc(C)c(C)s3)C2)[nH]c(C)c1C(C)=O (centres unmarked) [Compound 25]	Negative
Cc1cc(C)n2nc(CC(=O)NCC(C)(C)Cn3cc(-c4sccc4C)nn3)nc2n1 [Compound 64]	Positive
CCCc1c(C(=O)N2CCC(Cc3cn(C4CC4)nn3)CC2)[nH]c(C)c1C(C)=O [Compound 54]	Negative
CC(=O)c1ccc(N2CCN(C(=O)Nc3nnc(C)s3)CC2)c(F)c1 [Compound 69]	Positive
Cc1cn2cc(C(=O)NC(C)CC(C)NC(=O)c3ccsn3)sc2n1 (centres unmarked) [Compound 91]	Negative

Please look at the items below and tell me SPR RESULT for each one, in order.
1. CCCc1c(C(=O)N2CCC(Cc3cn(-c4cccc(F)c4C)nn3)C2)[nH]c(C)c1C(C)=O (centres unmarked) [Compound 33]
2. COc1cccc(-n2c(C)nnc2SCC(=O)Nc2ccc(C(F)F)cc2)c1 [Compound 43]
3. CN(Cc1cccc(OC(F)F)c1)C(=O)C(=O)NC1CCN(C(=O)c2ccco2)c2ccccc21 (centres unmarked) [Compound 86]
4. Cc1cc(C)n2c(CNc3ccc(C)c(NC(=O)CN4CCCCC4)c3)cnc2n1 [Compound 67]
5. COC1CC(CCC(=O)NC2CC3(CCN(C(=O)c4occc4Br)C3)Oc3ccccc32)C1 (centres unmarked) [Compound 62]

Negative
Positive
Negative
Positive
Positive
